test system: CAF#3 (primary prostate cancer-associated fibroblasts of myCAF-like type); experiment: drug sensitivity score (DSS2, normalised partial AUC of dose-response, 72 h CellTiter-Glo viability) (DSS (dimensionless)); higher = more sensitive (stronger growth inhibition / cytotoxicity); extreme values may be limits of the assay
readout.label: drug sensitivity score
Just the number, please.

Exercise: Report drug sensitivity score on CAF#3 for this entry: Cc1cc(-c2nc(-c3ccc(OC(F)(F)F)cc3)no2)nn1Cc1ccnc(N2CCN(C3CC3)CC2)c1 [BAY 87-2243] (tested concentration range 0.1-1000 nM)
Solution: 0.5

Exercise: Report drug sensitivity score on CAF#3 for this entry: CN1CCN(C2CCC(n3cc(-c4ccc(Oc5ccccc5)cc4)c4c(N)ncnc43)CC2)CC1 (centres undefined) (tested concentration range 1-10000 nM)
Solution: 11.2

Exercise: Report drug sensitivity score on CAF#3 for this entry: CCC1(c2ccc(N)cc2)CCC(=O)NC1=O (centres undefined) [Aminoglutethimide] (tested concentration range 1-10000 nM)
Solution: 0.2

Exercise: Report drug sensitivity score on CAF#3 for this entry: C=CCc1cccc(/C=N/NC(=O)CN2CCN(Cc3ccccc3)CC2)c1O [PAC-1] (tested concentration range 1-10000 nM)
Solution: 1.9

Exercise: Report drug sensitivity score on CAF#3 for this entry: Cn1cnc2c(F)c(Nc3ccc(Br)cc3Cl)c(C(=O)NOCCO)cc21 [Selumetinib] (tested concentration range 1-10000 nM)
Solution: 0

Exercise: Report drug sensitivity score on CAF#3 for this entry: CS(=O)(=O)CCNCc1ccc(-c2ccc3ncnc(Nc4ccc(OCc5cccc(F)c5)c(Cl)c4)c3c2)o1 [Lapatinib] (tested concentration range 0.1-1000 nM)
Solution: 0.1

Exercise: Report drug sensitivity score on CAF#3 for this entry: CN1CCC(COc2cnc(-c3cccc(Cn4nc(-c5cccc(C#N)c5)ccc4=O)c3)nc2)CC1 [Tepotinib] (tested concentration range 0.1-1000 nM)
Solution: 0

Exercise: Report drug sensitivity score on CAF#3 for this entry: COc1cc(OC)cc(N(CCNC(C)C)c2ccc3ncc(-c4cnn(C)c4)nc3c2)c1 [Erdafitinib] (tested concentration range 0.1-1000 nM)
Solution: 6.2

Exercise: Report drug sensitivity score on CAF#3 for this entry: COc1cc2nccc(Oc3ccc(NC(=O)C4(C(=O)Nc5ccc(F)cc5)CC4)cc3)c2cc1OC [Cabozantinib] (tested concentration range 0.1-1000 nM)
Solution: 5.4

Exercise: Report drug sensitivity score on CAF#3 for this entry: COc1cc(Nc2ncc(F)c(Nc3ccc4c(n3)NC(=O)C(C)(C)O4)n2)cc(OC)c1OC [Tamatinib] (tested concentration range 1-10000 nM)
Solution: 1.7

Exercise: Report drug sensitivity score on CAF#3 for this entry: CC(C)(C)c1nc(-c2cccc(NS(=O)(=O)c3c(F)cccc3F)c2F)c(-c2ccnc(N)n2)s1 [Dabrafenib] (tested concentration range 0.2-2500 nM)
Solution: 4.5

Exercise: Report drug sensitivity score on CAF#3 for this entry: C[C@@H]1C[C@H]2[C@@H]3CCC4=CC(=O)C=C[C@]4(C)[C@@]3(F)[C@@H](O)C[C@]2(C)[C@@]1(O)C(=O)CO [Dexamethasone] (tested concentration range 1-10000 nM)
Solution: 0

Exercise: Report drug sensitivity score on CAF#3 for this entry: O=c1[nH]c(=O)n([C@H]2C[C@H](O)[C@@H](CO)O2)cc1F [Floxuridine] (tested concentration range 1-10000 nM)
Solution: 1.1

Exercise: Report drug sensitivity score on CAF#3 for this entry: CC(=O)N(O)CCCCCNC(=O)CCC(=O)N(O)CCCCCNC(=O)CCC(=O)N(O)CCCCCN [Deferoxamine] (tested concentration range 1-10000 nM)
Solution: 0.2
